Tested target: Streptavidin (Streptomyces avidinii)
Protocol summary: streptavidin binders on small-molecule microarray, primary screen, artefact control for SMM compound annotation, biophysical, 635/667 nm fluorescence (AID 1147);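 further: signal reflects streptavidin binding to arrayed compounds as a control protein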
Applied conditions: streptavidin binding, higher = more signal

Compound: COc1ccc(NN2C(C(O)c3cc(OC)c(OC)c(OC)c3)C=CC3C(=O)N(C4CCCCC4)C(=O)C32)cc1 (configuration not stated)
composite z-score: 1.14
--
Compound: O=C(CS)NCCCCCCNC(=O)[C@@H]1C[C@@H]2C(=O)N[C@@H](Cc3ccccc3)C(=O)N2[C@@H]1c1ccc(O)cc1
composite z-score: 0.226
--
Compound: CCCC=C(CCC)[C@@H](NS(=O)(=O)c1ccc(C(F)(F)F)cc1)c1ccc(-c2ccccc2)cc1
composite z-score: 0.991
--
Compound: CC(C)N1CC=CC23O[C@@H]4/C=C\CCCOC(=O)C4[C@H]2C(=O)N(CCCCCO)[C@@H]3C1=O (some centres not stated)
composite z-score: -1.52
--
Compound: COC(=O)c1c(CC[C@@H](CO)NC(=O)N[C@H](Cn2cc(-c3cncn3C)nn2)C(C)C)oc(C(C)=O)c1C(=O)OC
composite z-score: 0.341
--
Compound: COCCOC(=O)N1C(=O)[C@@]2(c3cc(C#CC4(O)CCCCCC4)ccc31)[C@H](C(=O)N1CCCCCCC1)[C@H]1C(=O)O[C@H](c3ccccc3)[C@H](c3ccccc3)N1[C@@H]2c1ccc(O)cc1
composite z-score: 1.16
--
Compound: COc1ccc(-c2cc3c(c(-c4ccccc4)n2)[Si](C(C)C)(C(C)C)O[C@H]3c2ccccc2)cn1
composite z-score: -0.207
